procedure_text: Stability of compound in HUVEC cell lysates assessed as parent compound remaining after 6 hrs by HPLC-MS
Assay type: ADME, subcellular
applied_conditions: human, HUVEC cell lysates, read-out: Stabilty
measurement_kind: remaining at 6 h
Field: value (include unit after the number)

Problem: # lookup: remaining at 6 h of H-SVVFGLR-NH2
Solution: 50%

----------
procedure_text: Stability of compound in HUVEC cell lysates assessed as parent compound remaining after 6 hrs by HPLC-MS
Assay type: ADME, subcellular
applied_conditions: human, huvec, 6 h
Where a SMILES comes first, the peptide text is derived from it. [ ]: non-standard residue; d: D form. AEEA = NCCOCCOCC(=O)O
measurement_kind: Stabilty

CC(C)C[C@H](NC(=O)CNC(=O)[C@H](Cc1ccccc1)NC(=O)[C@@H](NC(=O)[C@@H](NC(=O)[C@H](CO)NC(=O)COCCOCCN)C(C)C)C(C)C)C(=O)N[C@@H](CCCNC(=N)N)C(N)=O (H-[AEEA]SVVFGLR-NH2) | Stable
CC(C)C[C@@H]1NC(=O)CNC(=O)[C@H](Cc2ccccc2)NC(=O)[C@H](C(C)C)NC(=O)[C@H](C(C)C)NC(=O)[C@H](CO)NC(=O)COCCOCCNC(=O)[C@@H](N)CSSC[C@@H](C(N)=O)NC(=O)CNC(=O)[C@H](CCCNC(=N)N)NC1=O | Stable
CC(C)C[C@@H]1NC(=O)CNC(=O)[C@H](Cc2ccccc2)NC(=O)[C@H](C(C)C)NC(=O)[C@H](C(C)C)NC(=O)[C@H](CO)NC(=O)COCCOCCNC(=O)[C@H](N)CSSC[C@H](C(N)=O)NC(=O)CNC(=O)[C@H](CCCNC(=N)N)NC1=O | Stable

----------
procedure_text: Stability of compound in human serum assessed as parent compound remaining after 6 hrs by HPLC-MS
Type: ADME, cell-free
applied_conditions: read-out: Stabilty
Where a SMILES comes first, the peptide text is derived from it. Bridges are numbered along the chain shown (N, C = ends). [ ]: non-standard residue; d: D form. AEEA = NCCOCCOCC(=O)O
measurement_kind: remaining at 6 h (%)
The reply should contain only the number, in %.

Problem: # lookup: remaining at 6 h of CC(C)C[C@@H]1NC(=O)CNC(=O)[C@H](Cc2ccccc2)NC(=O)[C@H](C(C)C)NC(=O)[C@H](C(C)C)NC(=O)[C@H](CO)NC(=O)COCCOCCNC(=O)CC[C@@H](C(N)=O)NC(=O)[C@H](CCCNC(=N)N)NC1=O ([AEEA]SVVFGLRE-NH2; lactam N-9)
Solution: 80
